Target: hJAK2 (Homo sapiens, UniProt O60674)
Construct: purchased Cerep (LANCE kinase assay platform, contract assay)
Sequence (O60674 whole entry): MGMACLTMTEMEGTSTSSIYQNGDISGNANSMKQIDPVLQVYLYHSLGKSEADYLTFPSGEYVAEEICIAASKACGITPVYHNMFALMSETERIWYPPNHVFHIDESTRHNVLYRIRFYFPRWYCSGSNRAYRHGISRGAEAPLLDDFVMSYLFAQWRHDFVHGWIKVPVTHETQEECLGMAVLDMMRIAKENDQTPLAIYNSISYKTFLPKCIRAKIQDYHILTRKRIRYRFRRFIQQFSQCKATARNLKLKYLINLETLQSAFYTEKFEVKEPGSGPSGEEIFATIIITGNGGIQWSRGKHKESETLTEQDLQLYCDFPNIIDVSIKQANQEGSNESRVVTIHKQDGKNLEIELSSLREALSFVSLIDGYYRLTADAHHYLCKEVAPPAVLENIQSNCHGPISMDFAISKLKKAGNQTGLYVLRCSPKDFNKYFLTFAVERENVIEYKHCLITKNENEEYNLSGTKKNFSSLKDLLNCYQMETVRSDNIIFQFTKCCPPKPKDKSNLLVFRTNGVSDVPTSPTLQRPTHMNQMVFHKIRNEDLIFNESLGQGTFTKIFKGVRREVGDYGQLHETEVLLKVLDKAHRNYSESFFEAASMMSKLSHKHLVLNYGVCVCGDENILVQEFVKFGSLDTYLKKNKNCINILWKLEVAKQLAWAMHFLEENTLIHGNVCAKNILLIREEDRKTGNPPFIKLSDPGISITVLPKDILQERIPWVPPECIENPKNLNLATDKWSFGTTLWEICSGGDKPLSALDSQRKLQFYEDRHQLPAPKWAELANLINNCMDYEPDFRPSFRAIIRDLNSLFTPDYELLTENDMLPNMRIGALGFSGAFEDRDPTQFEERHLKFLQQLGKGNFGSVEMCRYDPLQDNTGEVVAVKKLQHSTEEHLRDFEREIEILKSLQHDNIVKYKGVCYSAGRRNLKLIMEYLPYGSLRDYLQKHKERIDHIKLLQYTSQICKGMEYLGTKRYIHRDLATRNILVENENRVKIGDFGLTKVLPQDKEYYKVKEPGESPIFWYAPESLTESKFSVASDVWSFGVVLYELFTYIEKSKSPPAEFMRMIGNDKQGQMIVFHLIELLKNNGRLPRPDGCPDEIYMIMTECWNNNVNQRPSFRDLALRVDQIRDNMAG
Experiment description: Cerep LANCE kinase assay hJAK2 (S1 assay 33)
Format: biochemical
Quick reference: IC50/EC50, hJAK2 LANCE (assay number 33) of the listed items.
Attribute measured: IC50/EC50, hJAK2 LANCE (assay number 33)

>>> val("C[n+]1c2cc(N)ccc2cc2ccc(N)cc21 [NCGC00178831-03]")
"> 20 µM"
>>> val("Cn1cnc([N+](=O)[O-])c1Sc1ncnc2nc[nH]c12 [NCGC00015060-18]")
"> 20 µM"
>>> val("O=[N+]([O-])c1ccc(O)c2ncccc12 [NCGC00160664-03]")
"> 20 µM"
>>> val("COC(=O)Nc1nc2ccc(C(=O)c3cccs3)cc2[nH]1 [NCGC00015647-18]")
"> 20 µM"
>>> val("COC(=O)Nc1nc2ccc([S+]([O-])c3ccccc3)cc2[nH]1 (stereo not drawn) [NCGC00095157-05]")
"> 20 µM"
>>> val("COC(=O)Nc1nc2ccc(C(=O)c3ccccc3)cc2[nH]1 [NCGC00016806-13]")
"> 20 µM"
>>> val("O=c1c(-c2ccccc2)c1-c1ccccc1 [NCGC00166113-04]")
"> 20 µM"
>>> val("NC(=NCCCCCCN=C(N)/N=C(\\N)Nc1ccc(Cl)cc1)/N=C(\\N)Nc1ccc(Cl)cc1 [NCGC00016246-09]")
"> 20 µM"
>>> val("O=c1[nH]c(=O)n([C@H]2C[C@H](O)[C@@H](CO)O2)cc1F [NCGC00023722-08]")
"> 20 µM"
>>> val("COC(=O)Nc1nc2ccc(C(=O)C3CC3)cc2[nH]1 [NCGC00262953-01]")
"> 20 µM"
>>> val("CCN(CC)CCNc1ccc(CO)c2sc3ccccc3c(=O)c12 [NCGC00016622-08]")
"> 20 µM"
>>> val("CCCSc1ccc2nc(NC(=O)OC)[nH]c2c1 [NCGC00016876-12]")
"> 20 µM"
>>> val("COC(=O)Nc1nc2ccc(Sc3ccccc3)cc2[nH]1 [NCGC00016855-10]")
"> 20 µM"
>>> val("CCc1nc(N)nc(N)c1-c1ccc(Cl)cc1 [NCGC00016256-17]")
"> 20 µM"
>>> val("COC(=O)c1nc(Cl)c(Cl)nc1N [NCGC00253704-01]")
"> 20 µM"

----------
Tested on: NCI-H716 cells
Experiment description: cells
Type: cell-based, Human
Condition notes: Homo sapiens, NCI-H716, read-out: GLP1 sec. EC50
pEC50: −log10 of the molar value.
Quick reference: pEC50 of the listed items.
Attribute measured: pEC50

>>> val("CC(CC1c2ccccc2CCc2ccccc21)CN(C)C (stereo not shown) [butriptyline, reference compound]")
"< 5.00"
>>> val("CSc1ccc2c(c1)C(N1CCN(C)CC1)Cc1ccccc1S2 (stereo not shown) [metitepine, reference compound]")
"< 5.00"
>>> val("O=C(NOCC1CC1)c1ccc(F)c(F)c1Nc1ccc(I)cc1Cl [PD-184352, reference compound]")
"< 5.00"
>>> val("CC(C)C[C@H](NC(=O)[C@H](Cc1ccccc1)NC(=O)c1cnccn1)B(O)O [bortezomib, reference compound]")
"< 5.00"
